Some binders, each annotated with its measured Relative Inhibition of IL-13 induced TARC IC50.
Target: T1, hIL-4Rα on cells (human, UniProt P24394 26-825)
T1 sequence: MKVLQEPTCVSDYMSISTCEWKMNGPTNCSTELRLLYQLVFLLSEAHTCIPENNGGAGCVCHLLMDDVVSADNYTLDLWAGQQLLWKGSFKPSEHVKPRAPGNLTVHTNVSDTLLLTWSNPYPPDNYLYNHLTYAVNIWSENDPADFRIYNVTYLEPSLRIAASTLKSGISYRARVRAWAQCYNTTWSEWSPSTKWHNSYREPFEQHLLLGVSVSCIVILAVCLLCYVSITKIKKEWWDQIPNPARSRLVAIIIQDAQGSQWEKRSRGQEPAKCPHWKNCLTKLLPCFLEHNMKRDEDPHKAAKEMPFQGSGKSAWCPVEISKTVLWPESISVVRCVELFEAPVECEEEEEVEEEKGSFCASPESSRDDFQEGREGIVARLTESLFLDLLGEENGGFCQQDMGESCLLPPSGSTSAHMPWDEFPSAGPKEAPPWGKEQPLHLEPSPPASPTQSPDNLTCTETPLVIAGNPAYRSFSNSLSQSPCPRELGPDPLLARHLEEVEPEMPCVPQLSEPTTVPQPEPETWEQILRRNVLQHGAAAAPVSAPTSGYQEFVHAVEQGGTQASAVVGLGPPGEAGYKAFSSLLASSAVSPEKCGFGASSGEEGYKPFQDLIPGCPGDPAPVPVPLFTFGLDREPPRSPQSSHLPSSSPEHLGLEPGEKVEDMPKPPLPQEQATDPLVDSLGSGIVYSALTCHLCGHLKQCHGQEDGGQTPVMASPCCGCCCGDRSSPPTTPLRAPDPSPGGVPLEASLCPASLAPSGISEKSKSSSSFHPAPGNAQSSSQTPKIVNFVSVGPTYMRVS
Assay: cell-based or functional assay

{"binder": "Construct 20 (mAb428) (antibody, IgG4, V domains shown, VH/VL only) VH: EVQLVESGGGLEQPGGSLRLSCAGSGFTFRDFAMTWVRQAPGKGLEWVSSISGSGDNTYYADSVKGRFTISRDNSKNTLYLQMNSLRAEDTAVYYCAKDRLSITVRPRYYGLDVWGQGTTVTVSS VL: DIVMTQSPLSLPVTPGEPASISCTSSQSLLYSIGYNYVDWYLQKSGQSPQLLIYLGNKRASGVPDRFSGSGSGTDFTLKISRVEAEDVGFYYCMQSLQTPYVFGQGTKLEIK", "valueObserved": "1.83 relative to dupilumab"}

Kindly consider the entry below.
Determine from records and report Relative Inhibition of IL-13 induced TARC IC50 for Construct 15 (mAb423) (antibody, IgG4, V domains shown, VH/VL only) VH: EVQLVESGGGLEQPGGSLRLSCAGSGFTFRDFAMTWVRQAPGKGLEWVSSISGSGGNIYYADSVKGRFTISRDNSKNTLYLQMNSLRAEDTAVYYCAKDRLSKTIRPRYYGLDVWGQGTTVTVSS VL: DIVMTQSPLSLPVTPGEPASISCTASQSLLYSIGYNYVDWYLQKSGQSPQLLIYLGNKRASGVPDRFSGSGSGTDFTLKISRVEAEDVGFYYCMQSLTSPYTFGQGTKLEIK
0.35 relative to dupilumab
